Please provide measured Phosphatase activity in the Malachite Green Assay, analog concentration 250 μM for the entries that follow.
target: recombinant human truncated SHIP1 (tSHIP1) (Homo sapiens, UniProt Q92835); construct: tSHIP1 (SHIP1, residues 397-864) was amplified from pET24TEV-tSHIP1; His tag; made in house; host or cells: E. coli BL21; test: Malachite Green Phosphatase Release Assay (SHIP1 phosphatase activity); type: biochemical; conditions: 250 μM analog; 100 μM PI(3,4,5)P3-diC8 substrate; normalized to vehicle control (DMSO) = 100%
Answers are plain numbers, in %.

mol-smiles: O=C(CNS(=O)(=O)c1ccc(F)cc1)Nc1ccc(S(=O)(=O)N2CCSCC2)cc1
data-value: 105
//
mol-smiles: Cc1sc(S(=O)(=O)N2CCSCC2)cc1NC(=O)CNS(=O)(=O)c1ccccc1C(F)(F)F
data-value: 108
//
mol-smiles: Cc1sc(S(=O)(=O)N2CCSCC2)cc1NC(=O)CNC(=O)c1ccccc1
data-value: 94
//
mol-smiles: Cc1sc(S(=O)(=O)N2CCSCC2)cc1NC(=O)CNS(=O)(=O)c1ccccc1
data-value: 106
//
mol-smiles: Cc1sc(S(=O)(=O)N2CCSCC2)cc1NC(=O)[C@H](Cc1ccccc1)NS(=O)(=O)c1ccc(F)cc1
data-value: 74

Would you mind listing Phosphatase activity in the Malachite Green Assay, analog concentration 250 μM for each of the following compounds?
1. Cc1sc(S(=O)(=O)N2CCSCC2)cc1NC(=O)[C@@H](Cc1ccccc1)NS(=O)(=O)c1ccc(F)cc1
2. CCCCNS(=O)(=O)c1cc(NC(=O)CNS(=O)(=O)c2ccc(F)cc2)c(C)s1
3. Cc1sc(S(=O)(=O)N2CCSCC2)cc1NC(=O)[C@@H]1CCCN1S(=O)(=O)c1ccc(F)cc1
4. Cc1sc(S(=O)(=O)N2CCSCC2)cc1NC(=O)CNS(=O)(=O)c1ccc(F)cc1
5. Cc1sc(S(=O)(=O)N2CCSCC2)cc1NC(=O)CNS(=O)(=O)c1ccccc1[N+](=O)[O-]
6. Cc1sc(S(=O)(=O)N2CCCCC2)cc1NC(=O)CNS(=O)(=O)c1ccc(F)cc1

106
124
127
106
133
119

====

molecular target: recombinant human truncated SHIP1 (tSHIP1) (Homo sapiens); construct: tSHIP1 (SHIP1, residues 397-864) was amplified from pET24TEV-tSHIP1; His tag; made in house; host or cells: E. coli BL21; assay: Malachite Green Phosphatase Release Assay (SHIP1 phosphatase activity); assay type: biochemical; conditions: 500 μM analog; 100 μM PI(3,4,5)P3-diC8 substrate; normalized to vehicle control (DMSO) = 100%; >100% activation, <100% inhibition
Please provide measured Phosphatase activity in the Malachite Green Assay, analog concentration 500 μM for the entries that follow.
Give bare numbers, in %.

Known results for compounds:
compound: Cc1sc(S(=O)(=O)N(C)C)cc1NC(=O)CNS(=O)(=O)c1ccc(F)cc1 [Compound K388]
unit-string: %
data-value: 94
//
compound: Cc1sc(S(=O)(=O)N2CCSCC2)cc1NC(=O)[C@H](C)NS(=O)(=O)c1ccc(F)cc1 [Compound K389]
unit-string: %
data-value: 132
//
compound: Cc1sc(S(=O)(=O)N2CCSCC2)cc1NC(=O)CNS(=O)(=O)c1ccccc1C(F)(F)F [Compound K403]
unit-string: %
data-value: 139
//
compound: Cc1sc(S(=O)(=O)N2CCSCC2)cc1NC(=O)CNS(=O)(=O)c1cccc([N+](=O)[O-])c1 [Compound K392]
unit-string: %
data-value: 106
//
compound: Cc1sc(S(=O)(=O)N2CCSCC2)cc1N [Compound K381]
unit-string: %
data-value: 113
//
compound: CCCCNS(=O)(=O)c1cc(NC(=O)CNS(=O)(=O)c2ccc(F)cc2)c(C)s1 [Compound K382]
unit-string: %
data-value: 122
//
compound: Cc1sc(S(=O)(=O)N2CCSCC2)cc1NC(=O)CNS(=O)(=O)c1ccc(F)cc1 [Compound K306]
unit-string: %
data-value: 133
//
compound: O=C(CNS(=O)(=O)c1ccc(F)cc1)Nc1cccc(S(=O)(=O)N2CCSCC2)c1 [Compound K400]
unit-string: %
data-value: 107

Would you mind listing Phosphatase activity in the Malachite Green Assay, analog concentration 500 μM for each of the following compounds?
1. Cc1sc(S(=O)(=O)N2CCOCC2)cc1NC(=O)CNS(=O)(=O)c1ccc(F)cc1 [Compound K367]
2. Cc1sc(S(=O)(=O)N2CCCCC2)cc1NC(=O)CNS(=O)(=O)c1ccc(F)cc1 [Compound K368]
3. Cc1sc(S(=O)(=O)N2CCSCC2)cc1NC(=O)[C@H](Cc1ccccc1)NS(=O)(=O)c1ccc(F)cc1 [Compound K396]

1: 94; 2: 128; 3: 130

====

Please provide measured Phosphatase activity in the Malachite Green Assay, analog concentration 250 μM for the entries that follow.
Target: recombinant human truncated SHIP1 (tSHIP1) (Homo sapiens, UniProt Q92835)
Construct: tSHIP1 (SHIP1, residues 397-864) was amplified from pET24TEV-tSHIP1; His tag; made in house; host or cells: E. coli BL21
Sequence (Q92835 397-864): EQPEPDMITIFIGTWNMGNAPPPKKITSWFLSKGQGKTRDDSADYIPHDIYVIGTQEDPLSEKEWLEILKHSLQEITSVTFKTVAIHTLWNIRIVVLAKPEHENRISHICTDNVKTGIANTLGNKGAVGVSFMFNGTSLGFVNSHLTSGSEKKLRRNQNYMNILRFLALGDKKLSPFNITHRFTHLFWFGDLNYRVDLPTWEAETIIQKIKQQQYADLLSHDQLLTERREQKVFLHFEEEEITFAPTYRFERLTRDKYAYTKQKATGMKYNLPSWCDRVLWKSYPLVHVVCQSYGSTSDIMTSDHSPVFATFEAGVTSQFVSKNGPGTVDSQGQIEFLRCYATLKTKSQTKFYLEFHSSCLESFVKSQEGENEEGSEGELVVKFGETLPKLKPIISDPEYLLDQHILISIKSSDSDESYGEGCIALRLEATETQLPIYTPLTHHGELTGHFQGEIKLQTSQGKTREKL
Experiment: Malachite Green Phosphatase Release Assay (SHIP1 phosphatase activity)
Assay type: biochemical
Conditions: 250 μM analog; 100 μM PI(3,4,5)P3-diC8 substrate; normalized to vehicle control (DMSO) = 100%
Numbers only, in %.

Known results for compounds:
mol-smiles: O=C(CNS(=O)(=O)c1ccc(F)cc1)Nc1cc(S(=O)(=O)N2CCSCC2)sc1Cl
unit-string: %
data-value: 109
--
mol-smiles: CCN(CC)S(=O)(=O)c1cc(NC(=O)CNS(=O)(=O)c2ccc(F)cc2)c(C)s1
unit-string: %
data-value: 93
--
mol-smiles: O=C(CNS(=O)(=O)c1ccc(F)cc1)Nc1cccc(S(=O)(=O)N2CCSCC2)c1
unit-string: %
data-value: 97
--
mol-smiles: Cc1sc(S(=O)(=O)N2CC[S+]([O-])CC2)cc1NC(=O)CNS(=O)(=O)c1ccc(F)cc1
unit-string: %
data-value: 89

We next turn to a different compound, shown below.
GET /values?readout=Phosphatase activity in the Malachite Green Assay, analog concentration 250 μM&item= `Cc1sc(S(=O)(=O)N2CCSCC2)cc1NC(=O)CNC(=O)OCc1ccccc1`
102
